B1: library; numbered along this chain (parent)
chain: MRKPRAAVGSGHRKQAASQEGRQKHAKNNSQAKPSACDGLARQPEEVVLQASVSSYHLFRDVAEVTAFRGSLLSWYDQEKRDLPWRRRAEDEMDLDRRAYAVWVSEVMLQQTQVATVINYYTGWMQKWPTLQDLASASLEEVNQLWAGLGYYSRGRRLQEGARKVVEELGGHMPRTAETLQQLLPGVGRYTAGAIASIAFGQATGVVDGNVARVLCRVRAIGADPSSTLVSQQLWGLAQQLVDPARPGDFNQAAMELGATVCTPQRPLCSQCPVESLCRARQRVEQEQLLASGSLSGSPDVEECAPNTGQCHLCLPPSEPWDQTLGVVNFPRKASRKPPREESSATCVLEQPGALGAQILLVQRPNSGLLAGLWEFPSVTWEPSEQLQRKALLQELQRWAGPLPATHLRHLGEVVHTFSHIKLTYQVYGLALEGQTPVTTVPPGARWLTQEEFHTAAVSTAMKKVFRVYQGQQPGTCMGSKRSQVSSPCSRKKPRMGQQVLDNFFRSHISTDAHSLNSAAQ

Variants of: B1
Assay: 8OG:A repair function score (normalized; synonymous = 0, nonsense = -1) (normalized log-likelihood score); higher = more repair activity (WT-like);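 further: cells sorted at 72 h after reporter transfection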
Details: with 8OG:A DNA repair reporter (GFP) in HEK-293 MUTYH KO cells
Listed here: items and their measured 8OG:A repair function score.
The response must contain the number and no unit.

[[record]]
mutant_name = "I118A"
quantitative_readout = -0.0372

[[record]]
mutant_name = "L295T"
quantitative_readout = -0.00105

[[record]]
mutant_name = "Q111N"
quantitative_readout = -0.242


Looking up L432C , I found its 8OG:A repair function score recorded as 0.0294

Looking up V327W , I found its 8OG:A repair function score recorded as -0.425

Looking up E167Q , I found its 8OG:A repair function score recorded as 0.141

Looking up G444W , I found its 8OG:A repair function score recorded as -0.444
